B1: Twister Ribozyme (parent)
chain: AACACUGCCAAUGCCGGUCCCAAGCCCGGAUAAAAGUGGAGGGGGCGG

Variants of: B1
Test: self-cleavage, relative activity (ratio to wild type); higher = more cleavage; co-transcriptional
Output: class label from self-cleavage. Mapping: bottom range = under 0.1, center range = from 0.1 up to 0.6, top range = 0.6 and over

Exam item: Class? Entry: A23U A40G
Marked response: bottom range

Exam item: Hi there! Could you help me figure out the category for C9A G13U please?
Marked response: top range

Exam item: Classify this variant: A22C G44C
Marked response: top range

Exam item: Using the reported self-cleavage, which band applies to A1U G17C ?
Marked response: bottom range

Exam item: Which self-cleavage band matches G39U G43U ?
Marked response: center range

Exam item: Band for the recorded self-cleavage of A23G A34C ?
Marked response: bottom range

Exam item: Dear colleague, I would appreciate it if you could identify the bin for G28C C46G and reply at your convenience.
Marked response: center range

Exam item: Please let me know in which category the item C15U C27G belongs.
Marked response: bottom range

Exam item: Band assignment needed for A1U G48A please.
Marked response: bottom range

Exam item: Just checking, what class would you give A4U C5A here?
Marked response: bottom range

Exam item: Please classify: C5A G44C
Marked response: center range

Exam item: Lab log: C5U A40G — assign self-cleavage category
Marked response: center range

Exam item: Classify this variant: U12G A23C
Marked response: center range

Exam item: Pick a category. Item: U12G G48U
Marked response: top range

Exam item: For the record G16A A35C , report the class its self-cleavage corresponds to.
Marked response: top range

Exam item: Class for C15U C21A ?
Marked response: center range

Exam item: Where would G29A A35G land among the classes by reported self-cleavage?
Marked response: top range

Exam item: Class for A35C A40U ?
Marked response: center range

Exam item: Exercise: read the entry C20A G24A and state which class it falls under.
Marked response: center range

Exam item: Bin? G7U G39U
Marked response: bottom range

Exam item: Field: class (self-cleavage) — entry: A11G A35U
Marked response: top range

Exam item: Into which category would you place G13C G44U ?
Marked response: center range

Exam item: Kindly identify the class of A4G A22C .
Marked response: top range

Exam item: // bin(item) where item = A4C G28A
Marked response: center range

Exam item: Record C19G G28C — which class?
Marked response: center range

Exam item: Which class does C8A A40C fall in?
Marked response: center range

Exam item: Bin? U6A G47U
Marked response: center range

Exam item: Form: Item = C14U A33G ; Class = ?
Marked response: top range

Exam item: Given C21G G47A , name the class its self-cleavage places it in.
Marked response: bottom range

Exam item: Which category does the recorded self-cleavage put A10C C15U in?
Marked response: top range

Exam item: Please classify: G28A G38A
Marked response: top range

Exam item: Exercise: read the entry U6A C19G and state which class it falls under.
Marked response: bottom range
